test system: Ruminococcus gnavus DSM 108212; test: fold change of 2-Phenylethylamine concentration vs plate DMSO controls (fold change (ratio)); higher = more amine produced, active = hit call of the paper (significant change in both replicates, either direction); details: incubation time: 27 h, anaerobic, 37 °C
Counter-ions that a name gives are not always drawn.
Item-by-item account of fold change of 2-Phenylethylamine concentration
READOUT TYPE: fold change of 2-Phenylethylamine concentration

>>> df
                                   molecule  quantitative_readout
0          COc1c(Cl)ccc(Cl)c1C(=O)O (20 µM)                 0.995
1  Nc1ccc(S(=O)(=O)Nc2cnc3ccccc3n2)cc1 [Sulfaquinoxaline sodium salt] (20 µM)                 0.981
2  COC(c1ccccc1)(c1ccccc1)[C@H](Oc1nc(C)cc(C)n1)C(=O)O [Ambrisentan] (20 µM)                  1.01
